Value source: the Immune Epitope Database (IEDB)

Molecular target: HLA-A*31:01
Experiment: IEDB peptide-MHC binding, purified MHC/competitive/radioactivity; filed as Kd, often an IC50 or EC50 that approximates it; bounds were set here for any values at or beyond the usual limits of such assays
Details: source organism: Vaccinia virus WR
// map Kd to label using bucket A (below 0.3 µM), bucket B (0.3 µM to below 5 µM), bucket C (5 µM or more)

// below: answered sequences
biopolymer_sequence: RLGLVLDDY
qualitative_label: bucket C

biopolymer_sequence: DVKASMLEKY
qualitative_label: bucket C

biopolymer_sequence: NLDPDNKMSY
qualitative_label: bucket C

biopolymer_sequence: RFVKFNDYR
qualitative_label: bucket A

biopolymer_sequence: FLKSGAVVK
qualitative_label: bucket B

# bin lookup: classify `IIKSDHEFVK` by its Kd
bucket C

* * *

Molecular target: HLA-A*02:02
Assay: IEDB peptide-MHC binding, purified MHC/competitive/radioactivity; filed as Kd, often an IC50 or EC50 that approximates it; bounds were set here for any values at or beyond the usual limits of such assays
Conditions: source organism: Vaccinia virus WR
Please provide measured pKd for the entries that follow.
Answers are plain numbers, as −log10 of the molar value.

Take a look at these entries with their results.
biopolymer_sequence: LVKESMASL
observation_type: pKd
observed_value: 5.95
//
biopolymer_sequence: DAKRNSKSLV
observation_type: pKd
observed_value: 4.88
//
biopolymer_sequence: SVDVDIYDA
observation_type: pKd
observed_value: 5.92
//
biopolymer_sequence: ATLNTLITLI
observation_type: pKd
observed_value: 7.50
//
biopolymer_sequence: VMYAFTTPLI
observation_type: pKd
observed_value: 9.14

Please report pKd for every entry that follows.
1. YLLFNHFSV
2. AMHDKKIDI
3. ITPNNLNKI
4. TQVKELGIAI
5. FTSDYPFYV
6. TMSIYIAVA
7. IVTFINDYA
8. NLYISDYKM

1. 8.91
2. 4.76
3. 4.84
4. 5.66
5. 8.68
6. 7.09
7. 6.85
8. 5.55

* * *

Molecular target: HLA-B*18:01
Experiment: IEDB peptide-MHC binding, purified MHC/competitive/radioactivity; filed as Kd, often an IC50 or EC50 that approximates it; bounds were set here for any values at or beyond the usual limits of such assays
Settings: source organism: SARS coronavirus Tor2
pKd: −log10 of the molar value.
Provide the reported pKd of each item.

Example entries begin here.
biopolymer_sequence: CEEMLDNRAT
pKd: ≤ 4.34
--
biopolymer_sequence: EEAIRHVRA
pKd: ≤ 4.25
--
biopolymer_sequence: REGVFVFNG
pKd: ≤ 4.41
--
biopolymer_sequence: RELNGGAVT
pKd: ≤ 4.27
--
biopolymer_sequence: SDEVARDLSL
pKd: ≤ 4.36
--
biopolymer_sequence: WEILKFLITG
pKd: ≤ 4.38

Next up:
Name the recorded pKd of the sequence listed here: `GESVKTQFNY`
≤ 4.70

* * *

Molecular target: HLA-B*54:01
Experiment: IEDB peptide-MHC binding, purified MHC/competitive/radioactivity; filed as Kd, often an IC50 or EC50 that approximates it; bounds were set here for any values at or beyond the usual limits of such assays
Details: source organism: Vaccinia virus WR
pKd: −log10 of the molar value.
observation_type: pKd

// known answers, use as guide
biopolymer_sequence: KPDHDGNTPL
observation_type: pKd
observed_value: ≤ 4.39
--
biopolymer_sequence: SFSLESDSIK
observation_type: pKd
observed_value: ≤ 4.16
--
biopolymer_sequence: TFFSYLMKDK
observation_type: pKd
observed_value: ≤ 4.16
--
biopolymer_sequence: SPGEIKPKF
observation_type: pKd
observed_value: ≤ 4.29
--
biopolymer_sequence: KPDGSDSMDV
observation_type: pKd
observed_value: ≤ 4.16

Turning now to a further record.
Find the measured pKd of `NPDQNTFPNI` with HLA-B*54:01 as test system.
≤ 4.16

* * *

Molecular target: HLA-A*11:01
Assay: IEDB peptide-MHC binding, purified MHC/competitive/radioactivity; filed as Kd, often an IC50 or EC50 that approximates it; bounds were set here for any values at or beyond the usual limits of such assays
Conditions: source organism: Vaccinia virus WR
pKd: −log10 of the molar value.
observation_type: pKd

Look over these answered cases.
biopolymer_sequence: WLHECTDESR
observation_type: pKd
observed_value: ≤ 4.16
//
biopolymer_sequence: RVVVQIDPEY
observation_type: pKd
observed_value: ≤ 4.63
//
biopolymer_sequence: NVKKKNEGK
observation_type: pKd
observed_value: ≤ 4.53
//
biopolymer_sequence: EIIGGNDMY
observation_type: pKd
observed_value: ≤ 4.45

Proceeding to the next sequence to report its pKd.
Annotate the sequence `VFCNDHKGNR` with its measured pKd.
≤ 4.16

* * *

Assign pKd to each entry below.
Target: HLA-B*08:01
Assay: IEDB peptide-MHC binding, purified MHC/competitive/radioactivity; filed as Kd, often an IC50 or EC50 that approximates it; bounds were set here for any values at or beyond the usual limits of such assays
Conditions: source organism: Vaccinia virus WR
Answers are plain numbers, as −log10 of the molar value.

biopolymer_sequence: FALLKFTYL
pKd: 8.80

Hey, can you go through the list below and give me pKd for every item?
1. SRFKKVYIL
2. MSKIKHKIF
3. DLRRRFDTF
4. LTIACRVSL
5. NSKSRICVI
6. NMHLKRSVF
7. ENRLHKECL

1. 7.12
2. 9.07
3. 8.80
4. 6.14
5. 7.95
6. 6.83
7. 7.14

* * *

Field: Kd. Provide a value for each of the sequences that follow.
Biological target: HLA-A*24:02
Experiment: IEDB peptide-MHC binding, purified MHC/competitive/radioactivity; filed as Kd, often an IC50 or EC50 that approximates it; bounds were set here for any values at or beyond the usual limits of such assays
Conditions: source organism: SARS coronavirus Tor2
Numbers only, in µM.

biopolymer_sequence: DYRHYSASF
observed_value: 0.215

Below are some sequences; for each one, tell me its Kd.
1. KWADNNCYL
2. YFPREGVFVF

[4.92, 0.00735]

* * *

For each entry below, report its Kd value.
Molecular target: HLA-A*01:01
Experiment: IEDB peptide-MHC binding, purified MHC/competitive/radioactivity; filed as Kd, often an IC50 or EC50 that approximates it; bounds were set here for any values at or beyond the usual limits of such assays
Conditions: source organism: SARS coronavirus Tor2

biopolymer_sequence: SYSLFDMSKF
Kd: ≥ 25.1 µM

# return Kd for each item in the list
1. KWADNNCYL
2. DYRHYSASF
3. YFPREGVFVF
4. GYQPYRVVVL
5. NYMPYVFTLL

1. ≥ 78.1 µM
2. ≥ 41.8 µM
3. ≥ 70.4 µM
4. ≥ 70.4 µM
5. ≥ 40.5 µM

* * *

Task for the reader: assign each of the following sequences its reported Kd.
Biological target: HLA-B*58:01
Assay: IEDB peptide-MHC binding, purified MHC/direct/fluorescence; filed as Kd, often an IC50 or EC50 that approximates it; bounds were set here for any values at or beyond the usual limits of such assays
Conditions: source organism: Camelpox virus M-96

Some solved entries appear below for comparison.
biopolymer_sequence: DILASIIDY
observation_type: Kd
observed_value: ≥ 20 µM
//
biopolymer_sequence: EIKDRILSY
observation_type: Kd
observed_value: ≥ 20 µM

Next, consider the following sequence.
Complete the entry with Kd for `YPAVINSNI`
≥ 20 µM

* * *

Please go through the items and note down their pKd.
Molecular target: HLA-A*03:01
Test: IEDB peptide-MHC binding, purified MHC/competitive/radioactivity; filed as Kd, often an IC50 or EC50 that approximates it; bounds were set here for any values at or beyond the usual limits of such assays
Settings: source organism: Vaccinia virus WR
pKd: −log10 of the molar value.

biopolymer_sequence: ETFKIDAVR
system_under_test: HLA-A*03:01
observed_value: ≤ 4.54

biopolymer_sequence: WLHECTDESR
system_under_test: HLA-A*03:01
observed_value: ≤ 4.15

biopolymer_sequence: NIVTFINDY
system_under_test: HLA-A*03:01
observed_value: ≤ 4.11

biopolymer_sequence: YISRDELWAR
system_under_test: HLA-A*03:01
observed_value: ≤ 4.59

biopolymer_sequence: SLVKKNKKR
system_under_test: HLA-A*03:01
observed_value: ≤ 4.11

biopolymer_sequence: LTALLSCIR
system_under_test: HLA-A*03:01
observed_value: ≤ 4.11

biopolymer_sequence: DIKLDAVLDR
system_under_test: HLA-A*03:01
observed_value: ≤ 4.38

biopolymer_sequence: NTMCTEETKR
system_under_test: HLA-A*03:01
observed_value: ≤ 4.49

biopolymer_sequence: GADPNACDK
system_under_test: HLA-A*03:01
observed_value: ≤ 4.42

Next:
For the sequence `SFSLESDSIK` , report pKd.
≤ 4.66

* * *

Target: HLA-B*53:01
Experiment: IEDB peptide-MHC binding, purified MHC/competitive/radioactivity; filed as Kd, often an IC50 or EC50 that approximates it; bounds were set here for any values at or beyond the usual limits of such assays
Conditions: source organism: Vaccinia virus WR
pKd: −log10 of the molar value.
Assignment: determine reported pKd for the given sequences.

I have 3 sequences here; please give me pKd for each one.
1. KPDGSDSMDV
2. TFFSYLMKDK
3. SFSLESDSIK

["≤ 4.16", "≤ 4.62", "≤ 4.16"]
